system: mice with xerophthalmia (0.2% benzalkonium chloride); assay: Benzalkonium chloride xerophthalmia mouse model: sodium fluorescein staining and phenol red cotton thread tear test; format: in vivo, mouse (C57BL/6); conditions: eye drops 5 μL per eye twice daily, 400 μM CsA (10RAP: 400 μM rapamycin), day 14
observation_type: phenol red cotton thread infiltration length (tear secretion) after 14 d of treatment

1. CsA3-ASONFKBIZ-m: CsA trimer on tripropargyl linker at 3′ end of ASO targeting mouse NFKBIZ (SEQ ID NO: 8) (AATACTGGTACATTGACGCC; 3'-NHS ASO with tripropargyl linker carrying three cyclosporin A, chemistry not given here, further chemistry not given here) | about 3.5 mm
2. 2CsA-ASONFKBIZ-m: two CsA molecules coupled to 2DBCO ASO targeting mouse NFKBIZ (SEQ ID 4), self-assembled (AATACTGGTACATTGACGCCNTT; two CsA via DBCO click; modified_base 21 OTHER; n is t base modified with DBCO moiety) | about 3.5 mm

* * *

Assignment: determine reported sodium fluorescein staining eye score, day 0 (before treatment) for the given substances.
system: mice with xerophthalmia (0.2% benzalkonium chloride); assay: Benzalkonium chloride xerophthalmia mouse model: sodium fluorescein staining and phenol red cotton thread tear test; format: in vivo, mouse (C57BL/6); details: xerophthalmia mice, baseline of the treatment group
In the oligonucleotide strings, read from the 5' end, every base follows the letter of its sugar. An asterisk marks phosphorothioate; unmarked linkages are phosphodiester. Other units and linkages are bracketed, terminal groups are in braces. A string of capitals states the bases alone. d = 2'-deoxy (DNA); r = 2'-OH (RNA)
Report as a plain number; the unit points is understood.

input: Hi! What's the reported sodium fluorescein staining eye score, day 0 (before treatment) for 3CsA-ASONFKBIZ-m: three CsA molecules coupled to 3DBCO ASO targeting mouse NFKBIZ (SEQ ID 6), self-assembled (AATACTGGTACATTGACGCCNTNTT; three CsA via DBCO click; modified_base 21 OTHER; n is t base modified with DBCO moiety; modified_base 23 OTHER) on mice with xerophthalmia (0.2% benzalkonium chloride)?
output: 10

input: Hi! What's the reported sodium fluorescein staining eye score, day 0 (before treatment) for CsA3-ASONFKBIZ-m: CsA trimer on tripropargyl linker at 3′ end of ASO targeting mouse NFKBIZ (SEQ ID NO: 8) (AATACTGGTACATTGACGCC; 3'-NHS ASO with tripropargyl linker carrying three cyclosporin A, chemistry not given here, further chemistry not given here) on mice with xerophthalmia (0.2% benzalkonium chloride)?
output: 10

input: Hi! What's the reported sodium fluorescein staining eye score, day 0 (before treatment) for 2CsA-ASONFKBIZ-m: two CsA molecules coupled to 2DBCO ASO targeting mouse NFKBIZ (SEQ ID 4), self-assembled (AATACTGGTACATTGACGCCNTT; two CsA via DBCO click; modified_base 21 OTHER; n is t base modified with DBCO moiety) on mice with xerophthalmia (0.2% benzalkonium chloride)?
output: 6

input: Hi! What's the reported sodium fluorescein staining eye score, day 0 (before treatment) for CsA-ASONFKBIZ-m: single cyclosporin A (CsA-N3) click-coupled to 3′-DBCO ASO targeting mouse NFKBIZ gene (SEQ ID NO: 2) (AATACTGGTACATTGACGCC; 3'-DBCO ASO click-conjugated to one cyclosporin A, sugar and linkages not given here, further chemistry not given here) on mice with xerophthalmia (0.2% benzalkonium chloride)?
output: 5.5

input: Hi! What's the reported sodium fluorescein staining eye score, day 0 (before treatment) for 3CsA-siRNANFKBIZ-m: three CsA coupled to sense strand of siRNA targeting mouse NFKBIZ (SEQ ID NO: 19/20) (sense GCGUCAAUGUACCAGUAUUUUNUNUU; antisense AAUACUGGUACAUUGACGCCU; three CsA on sense strand; modified_base 22 OTHER; n is t base modified with DBCO moiety; modified_base 24 OTHER) on mice with xerophthalmia (0.2% benzalkonium chloride)?
output: 6

input: Hi! What's the reported sodium fluorescein staining eye score, day 0 (before treatment) for CsA-siRNANFKBIZ-m: one CsA coupled to sense strand of siRNA targeting mouse NFKBIZ (SEQ ID NO: 15/16) (sense rGrCrGrUrCrArArUrGrUrArCrCrArGrUrArUrUdTdT; antisense rArArUrArCrUrGrGrUrArCrArUrUrGrArCrGrCdCdT; cyclosporin A clicked onto the sense 3' DBCO group, further chemistry not fully specified) on mice with xerophthalmia (0.2% benzalkonium chloride)?
output: 6

input: Hi! What's the reported sodium fluorescein staining eye score, day 0 (before treatment) for 2CsA-siRNANFKBIZ-m: two CsA coupled to sense strand of siRNA targeting mouse NFKBIZ (SEQ ID NO: 17/18) (sense GCGUCAAUGUACCAGUAUUUUNUU; antisense AAUACUGGUACAUUGACGCCU; two CsA on sense strand; modified_base 22 OTHER; n is t base modified with DBCO moiety) on mice with xerophthalmia (0.2% benzalkonium chloride)?
output: 6

* * *

tested on: mice with xerophthalmia (0.2% benzalkonium chloride); test: Benzalkonium chloride xerophthalmia mouse model: sodium fluorescein staining and phenol red cotton thread tear test; type: in vivo, mouse (C57BL/6); details: xerophthalmia mice, baseline of the treatment group
In the oligonucleotide strings, read from the 5' end, every base follows the letter of its sugar. An asterisk marks phosphorothioate; unmarked linkages are phosphodiester. Other units and linkages are bracketed, terminal groups are in braces. A string of capitals states the bases alone. d = 2'-deoxy (DNA); r = 2'-OH (RNA)
Assignment: determine reported phenol red cotton thread infiltration length (tear secretion), day 0 (before treatment) for the given substances.
Please answer using a numeric value trailed by its unit.

input: Hi! What's the reported phenol red cotton thread infiltration length (tear secretion), day 0 (before treatment) for 3CsA-ASONFKBIZ-m: three CsA molecules coupled to 3DBCO ASO targeting mouse NFKBIZ (SEQ ID 6), self-assembled (AATACTGGTACATTGACGCCNTNTT; three CsA via DBCO click; modified_base 21 OTHER; n is t base modified with DBCO moiety; modified_base 23 OTHER) on mice with xerophthalmia (0.2% benzalkonium chloride)?
output: 1.3 mm

input: Hi! What's the reported phenol red cotton thread infiltration length (tear secretion), day 0 (before treatment) for 2CsA-siRNANFKBIZ-m: two CsA coupled to sense strand of siRNA targeting mouse NFKBIZ (SEQ ID NO: 17/18) (sense GCGUCAAUGUACCAGUAUUUUNUU; antisense AAUACUGGUACAUUGACGCCU; two CsA on sense strand; modified_base 22 OTHER; n is t base modified with DBCO moiety) on mice with xerophthalmia (0.2% benzalkonium chloride)?
output: 1.5 mm

input: Hi! What's the reported phenol red cotton thread infiltration length (tear secretion), day 0 (before treatment) for CsA-ASONFKBIZ-m: single cyclosporin A (CsA-N3) click-coupled to 3′-DBCO ASO targeting mouse NFKBIZ gene (SEQ ID NO: 2) (AATACTGGTACATTGACGCC; 3'-DBCO ASO click-conjugated to one cyclosporin A, sugar and linkages not given here, further chemistry not given here) on mice with xerophthalmia (0.2% benzalkonium chloride)?
output: 1.8 mm

input: Hi! What's the reported phenol red cotton thread infiltration length (tear secretion), day 0 (before treatment) for 3CsA-siRNANFKBIZ-m: three CsA coupled to sense strand of siRNA targeting mouse NFKBIZ (SEQ ID NO: 19/20) (sense GCGUCAAUGUACCAGUAUUUUNUNUU; antisense AAUACUGGUACAUUGACGCCU; three CsA on sense strand; modified_base 22 OTHER; n is t base modified with DBCO moiety; modified_base 24 OTHER) on mice with xerophthalmia (0.2% benzalkonium chloride)?
output: 1.5 mm

input: Hi! What's the reported phenol red cotton thread infiltration length (tear secretion), day 0 (before treatment) for CsA3-ASONFKBIZ-m: CsA trimer on tripropargyl linker at 3′ end of ASO targeting mouse NFKBIZ (SEQ ID NO: 8) (AATACTGGTACATTGACGCC; 3'-NHS ASO with tripropargyl linker carrying three cyclosporin A, chemistry not given here, further chemistry not given here) on mice with xerophthalmia (0.2% benzalkonium chloride)?
output: 1.5 mm

input: Hi! What's the reported phenol red cotton thread infiltration length (tear secretion), day 0 (before treatment) for CsA-siRNANFKBIZ-m: one CsA coupled to sense strand of siRNA targeting mouse NFKBIZ (SEQ ID NO: 15/16) (sense rGrCrGrUrCrArArUrGrUrArCrCrArGrUrArUrUdTdT; antisense rArArUrArCrUrGrGrUrArCrArUrUrGrArCrGrCdCdT; cyclosporin A clicked onto the sense 3' DBCO group, further chemistry not fully specified) on mice with xerophthalmia (0.2% benzalkonium chloride)?
output: 2 mm

input: Hi! What's the reported phenol red cotton thread infiltration length (tear secretion), day 0 (before treatment) for 2CsA-ASONFKBIZ-m: two CsA molecules coupled to 2DBCO ASO targeting mouse NFKBIZ (SEQ ID 4), self-assembled (AATACTGGTACATTGACGCCNTT; two CsA via DBCO click; modified_base 21 OTHER; n is t base modified with DBCO moiety) on mice with xerophthalmia (0.2% benzalkonium chloride)?
output: 1.5 mm
